Tested on: PC-3a
Test: MTT-based cytotoxicity assay, PC-3a
Settings: Homo sapiens, averages of at least two independent experiments, read-out: Cytotoxicity in different cell lines (IC50, μM) PC-3a
Counter-ions that a name gives are not always drawn.
Binary call on IC50 with cut-off 6 µM: strictly below means Criterion met, and equality or higher means Criterion not met.

Example entries and their recorded answers appear below.
CCOc1ccc2nc3cc(N)ccc3c(N)c2c1 [Compound A15, ETHACRIDINE LACTATE]; Criterion met
COc1cc(Br)c(CCNc2c3ccccc3nc3ccccc23)cc1OC; Criterion met
COc1ccc(CCN(C)c2c3ccccc3nc3ccccc23)cc1OC; Criterion met
COc1ccc2nc3cc(Cl)ccc3c(-c3ccncc3)c2c1; Criterion not met
COc1ccc2nc3cc(Cl)ccc3c(-c3ccc(F)cc3)c2c1; Criterion not met
COc1ccc2nc3ccccc3c(-c3ccncc3)c2c1; Criterion not met
CCN(CC)CCCC(C)Nc1c2ccc(Cl)cc2nc2ccc(OC)cc12 (stereo not drawn) [Compound A21, QUINACRINE HYDROCHLORIDE]; Criterion met
COc1ccc2nc3cc(Cl)ccc3c(N3CCN(C)CC3)c2c1; Criterion met
CCN(CC)CCCCNc1c2ccc(Cl)cc2nc2ccc(OC)cc12; Criterion met
COc1ccc2nc3ccccc3c(-c3ccc([N+](=O)[O-])cc3)c2c1; Criterion not met

Does the reported IC50 of "COc1ccc2nc3cc(Cl)ccc3c(NCCOCCO)c2c1" stay below 6 µM? Criterion met

Does the reported IC50 of "O=C(CSc1nc(=O)c2ccccc2[nH]1)c1ccc(O)c(O)c1" stay below 6 µM? Criterion not met

Does the reported IC50 of "COc1ccc2nc3cc(Cl)ccc3c(-c3ccc(N)cc3)c2c1" stay below 6 µM? Criterion not met

Does the reported IC50 of "COc1ccc2nc3cc(Cl)ccc3c(Oc3ccccc3)c2c1" stay below 6 µM? Criterion not met

Does the reported IC50 of "Nc1c2ccccc2nc2ccccc12" stay below 6 µM? Criterion met
